Molecular target: recombinant Hsp90α (Homo sapiens)
Construct: purchased Assay Designs (Ann Arbor, MI, USA)
Experiment: Surface plasmon resonance binding to immobilized Hsp90α
Conditions: SPR, immobilized Hsp90α, 25°C, single-site bimolecular model, 0.025-1 µM; read-out: KD
Entries whose Kd is below 2 µM take condition met; entries at or above 2 µM take condition not met.

Worked examples, 5 compounds total:
# Compound, Class assignment
records = [
    ("O=c1cc(-c2ccc(O)cc2)oc2cc(O)cc(O)c12", "condition not met"),
    ("O=C1O[C@H]2[C@@H]3OC(=O)c4cc(O)c(O)c(O)c4-c4c(cc(O)c(O)c4O)C(=O)OC[C@H]2O[C@@H](OC(=O)c2cc(O)c(O)c(O)c2)[C@@H]3OC(=O)c2cc(O)c(O)c3c2[C@@H]2C1=CC(=O)[C@](O)(O3)C2(O)O", "condition met"),
    ("O=C1c2c(O)cc(O)cc2OC(c2ccc(O)c(O)c2)C1O (stereo not drawn)", "condition met"),
    ("CC(=O)Oc1cc(OC(C)=O)c2c(=O)c(OC(C)=O)c(-c3ccc(OC(C)=O)c(OC(C)=O)c3)oc2c1", "condition not met"),
    ("O=c1c(O)c(-c2ccc(O)c(O)c2)oc2cc(O)ccc12", "condition not met"),
]

Moving on to the next compound.
Identify whether the compound O=c1c(O)c(-c2ccc(O)cc2)oc2cc(O)cc(O)c12 records Kd below 2 µM.
condition not met

* * *

Target: recombinant Hsp90α (Homo sapiens, UniProt P07900)
Construct: purchased Assay Designs (Ann Arbor, MI, USA)
Assay: Surface plasmon resonance binding to immobilized Hsp90α
Assay metric: Kd (nM)
Record the value in nM, omitting the unit from your answer.

Give the measured Kd of COc1cc(-c2oc3cc(O)cc(O)c3c(=O)c2O)ccc1O .
748
